- STUDY TARGET: USP2 (ubiquitin-specific protease 2) (Homo sapiens, UniProt O75604)
- Sequence (O75604 258-605): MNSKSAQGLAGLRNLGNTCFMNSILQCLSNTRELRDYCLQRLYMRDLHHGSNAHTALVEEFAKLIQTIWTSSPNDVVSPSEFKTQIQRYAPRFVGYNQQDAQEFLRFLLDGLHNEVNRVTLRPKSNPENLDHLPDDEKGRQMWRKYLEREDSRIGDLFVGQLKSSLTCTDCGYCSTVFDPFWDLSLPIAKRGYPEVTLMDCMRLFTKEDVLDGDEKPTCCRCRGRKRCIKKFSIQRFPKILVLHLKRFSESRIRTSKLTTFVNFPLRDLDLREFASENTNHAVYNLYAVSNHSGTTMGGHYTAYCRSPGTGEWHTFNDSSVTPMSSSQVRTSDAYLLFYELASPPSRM
- TEST DESCRIPTION: Ub-AFC deubiquitination kinetics, noncompetitive fit; very weak, called ineffective by the authors
- Assay type: biochemical
- Parameters: catalytic domain, residues 258–605
- CONDITION DETAILS: read-out: Kis

MOLECULE	Ki
Sc1ncnc2nc[nH]c12 [6MP, 6-mercaptopurine]	349 µM

Origin of measurements: paper PMC5814560
